# Study Target: UniProt:P41145
# Sequence (P41145 whole entry): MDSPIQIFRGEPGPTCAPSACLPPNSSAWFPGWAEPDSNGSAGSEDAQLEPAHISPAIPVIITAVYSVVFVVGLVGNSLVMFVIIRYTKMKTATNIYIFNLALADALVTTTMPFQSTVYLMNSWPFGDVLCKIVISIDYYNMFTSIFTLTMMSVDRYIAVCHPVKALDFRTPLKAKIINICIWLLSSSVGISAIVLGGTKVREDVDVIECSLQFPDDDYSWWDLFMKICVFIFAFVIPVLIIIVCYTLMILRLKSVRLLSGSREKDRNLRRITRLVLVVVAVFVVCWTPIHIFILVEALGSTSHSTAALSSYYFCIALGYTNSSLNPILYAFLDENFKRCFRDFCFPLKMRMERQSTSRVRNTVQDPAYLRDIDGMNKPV
# Protocol Details: DRUGMATRIX: Opiate kappa (OP2, KOP) radioligand binding (ligand: [3H] Diprenorphine)
# Assay type: cell membranes, HEK293, Membrane
# Reported Conditions: hek293; Not Active = under 50% inhibition at 10 µM
Outcome Measure: IC50

CC[C@H]1OC(=O)[C@H](C)[C@@H](O[C@H]2C[C@@](C)(OC)[C@@H](O)[C@H](C)O2)[C@H](C)[C@@H](O[C@@H]2O[C@H](C)C[C@H](N(C)C)[C@H]2O)[C@](C)(O)C[C@@H](C)C(=O)[C@H](C)[C@@H](O)[C@]1(C)O :: Not Active
CS(=O)(=O)c1ccc(C2=C(c3ccccc3)C(=O)OC2)cc1 :: Not Active
O=C(O)c1cc(/N=N/c2ccc(S(=O)(=O)Nc3ccccn3)cc2)ccc1O :: Not Active

* * *

# Study Target: 5-hydroxytryptamine receptor 1B (Rattus norvegicus, UniProt P28564); further: in other assays of this panel Not Active means under 50% inhibition at 10 µM
# Sequence (P28564 whole entry): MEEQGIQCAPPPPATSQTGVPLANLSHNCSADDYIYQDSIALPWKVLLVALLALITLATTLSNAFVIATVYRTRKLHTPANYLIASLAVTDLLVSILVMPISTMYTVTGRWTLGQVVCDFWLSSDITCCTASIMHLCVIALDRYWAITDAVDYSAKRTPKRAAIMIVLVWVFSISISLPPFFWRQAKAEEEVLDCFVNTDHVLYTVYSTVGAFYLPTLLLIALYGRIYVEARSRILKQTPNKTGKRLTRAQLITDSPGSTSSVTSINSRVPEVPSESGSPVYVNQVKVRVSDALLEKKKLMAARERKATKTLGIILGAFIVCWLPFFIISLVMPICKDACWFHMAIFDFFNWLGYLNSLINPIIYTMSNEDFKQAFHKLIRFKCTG
# Type: cell membranes, Wistar, Cerebral cortex, Membrane
# Reported Conditions: read-out: IC50
We label by threshold. Values of IC50 strictly beneath 1000 nM are MET. Values of 1000 nM and up are NOT MET.

Cc1cc2c(s1)Nc1ccccc1N=C2N1CCN(C)CC1 :: MET
COc1ccccc1OCCNCC(O)COc1cccc2[nH]c3ccccc3c12 (stereo unspecified) :: NOT MET
Cc1cc(C(C)(C)C)c(O)c(C)c1CC1=NCCN1 :: MET
CC(N)Cc1c[nH]c2ccc(OCc3cccs3)cc12 (stereo unspecified) :: MET
CN1C[C@H](CNC(=O)OCc2ccccc2)C[C@@H]2c3cccc4c3c(cn4C)C[C@H]21 :: MET

Now consider a different molecule.
Incoming: API: query returns whether the molecule falls strictly under 1000 nM in IC50. Query: CCN(CC)C(=S)SSC(=S)N(CC)CC
Outgoing: NOT MET

* * *

# Study Target: 3-hydroxy-3-methylglutaryl-coenzyme A reductase (Homo sapiens, UniProt P04035); further: in other assays of this panel Not Active means under 50% inhibition at 10 µM
# Sequence (P04035 whole entry): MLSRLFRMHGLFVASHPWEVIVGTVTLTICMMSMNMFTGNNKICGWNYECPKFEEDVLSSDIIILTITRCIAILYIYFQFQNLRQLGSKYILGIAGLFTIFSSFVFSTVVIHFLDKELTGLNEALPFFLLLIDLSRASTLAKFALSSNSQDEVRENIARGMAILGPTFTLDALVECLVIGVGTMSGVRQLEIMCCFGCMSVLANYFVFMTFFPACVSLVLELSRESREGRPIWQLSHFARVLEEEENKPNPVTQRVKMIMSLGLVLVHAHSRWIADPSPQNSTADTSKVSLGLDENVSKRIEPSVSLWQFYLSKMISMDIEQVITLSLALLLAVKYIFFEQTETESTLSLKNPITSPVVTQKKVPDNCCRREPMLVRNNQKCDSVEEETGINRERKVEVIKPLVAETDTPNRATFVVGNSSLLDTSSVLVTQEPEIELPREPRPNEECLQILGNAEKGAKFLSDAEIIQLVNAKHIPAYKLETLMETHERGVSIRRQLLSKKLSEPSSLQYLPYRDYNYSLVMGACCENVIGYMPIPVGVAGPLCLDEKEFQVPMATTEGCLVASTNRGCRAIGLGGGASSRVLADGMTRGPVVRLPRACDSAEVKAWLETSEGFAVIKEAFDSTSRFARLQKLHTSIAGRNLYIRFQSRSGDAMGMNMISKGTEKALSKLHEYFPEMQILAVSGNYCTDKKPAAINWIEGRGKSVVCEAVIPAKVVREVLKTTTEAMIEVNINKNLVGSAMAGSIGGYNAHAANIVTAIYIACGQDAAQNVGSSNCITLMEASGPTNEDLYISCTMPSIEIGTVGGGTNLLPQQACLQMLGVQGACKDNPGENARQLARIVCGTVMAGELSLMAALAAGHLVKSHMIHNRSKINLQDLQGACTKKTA
# Parameters: species or system Escherichia coli
Outcome Measure: Ki

Worked set:
COPPER(II) OXIDE :: Not Active
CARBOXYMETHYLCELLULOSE :: Not Active
LEAD(IV) ACETATE :: Not Active
POVIDONE :: Not Active

// next item, Ki requested
Incoming: # get_value(readout= Ki, system= 3-hydroxy-3-methylglutaryl-coenzyme A reductase (Homo sapiens, UniProt P04035)) for CHROMIC CHLORIDE;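 further: enzyme inhibition assay of HMG-CoA reductase using radiolabeled [14C]HMG-CoA as substrate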; further: in other assays of this panel Not Active means under 50% inhibition at 10 µM
Outgoing: Not Active

* * *

# Protocol Details: DRUGMATRIX: Calcium Channel Type L, Dihydropyridine radioligand binding (ligand: [3H] Nitrendipine)
# Format: cell membranes, Rattus norvegicus, Wistar, Cerebral cortex, Membrane
# Reported Conditions: Not Active = under 50% inhibition at 10 µM
Outcome Measure: IC50

Worked set:
O=c1[nH]c2ccccc2c2ccccc12 :: Not Active
O=C(O)CNCP(=O)(O)O [GLYPHOSATE] :: Not Active
C[N+](C)(C)CCOC(N)=O.[Cl-] :: Not Active
CS(=O)(=O)c1ccc(C2=C(c3ccccc3)C(=O)OC2)cc1 :: Not Active
CCN1C[C@]2(COC)[C@H](O)C[C@H](OC)[C@@]34[C@@H]5C[C@@]6(O)[C@H](OC(=O)c7ccccc7)[C@@H]5[C@@](OC(C)=O)([C@@H]([C@H](OC)[C@H]23)[C@@H]14)[C@@H](O)[C@@H]6OC :: Not Active
CC[C@H]1OC(=O)[C@H](C)[C@@H](O[C@H]2C[C@@](C)(OC)[C@@H](O)[C@H](C)O2)[C@H](C)[C@@H](O[C@@H]2O[C@H](C)C[C@H](N(C)C)[C@H]2O)[C@](C)(O)C[C@@H](C)C(=O)[C@H](C)[C@@H](O)[C@]1(C)O :: Not Active

// next item, IC50 requested
Incoming: Would you mind telling me what IC50 value was observed for COc1ccccc1OCCNCC(O)COc1cccc2[nH]c3ccccc3c12 (configuration not stated) ?
Outgoing: Not Active

* * *

pIC50 listing for selected compounds.
# Protocol Details: DRUGMATRIX: Imidazoline I2, Central radioligand binding (ligand: [3H] Idazoxan)
# Type: cell membranes, Rattus norvegicus, Wistar, Cerebral cortex, Membrane
# Reported Conditions: Not Active = under 50% inhibition at 10 µM; read-out: IC50
# pIC50 is unitless: minus log10 of the molar concentration; print number only

COc1ccccc1OCCNCC(O)COc1cccc2[nH]c3ccccc3c12 (configuration not stated) [CARVEDILOL] :: 5.72

Incoming: Would you mind telling me what pIC50 value was observed for CN1C[C@H](CNC(=O)OCc2ccccc2)C[C@@H]2c3cccc4c3c(cn4C)C[C@H]21 [METERGOLINE] ?
Outgoing: 5.72

Incoming: Query CCN(CCO)CCCC(C)Nc1ccnc2cc(Cl)ccc12 (configuration not stated) [HYDROXYCHLOROQUINE] next
Outgoing: 6.32

Incoming: Query CC(CN1c2ccccc2Sc2ccccc21)N(C)C (configuration not stated) [PROMETHAZINE] next
Outgoing: 5.70

* * *

# Study Target: 5-hydroxytryptamine receptor 2B (Homo sapiens, UniProt P41595); further: in other assays of this panel Not Active means under 50% inhibition at 10 µM
# Sequence (P41595 whole entry): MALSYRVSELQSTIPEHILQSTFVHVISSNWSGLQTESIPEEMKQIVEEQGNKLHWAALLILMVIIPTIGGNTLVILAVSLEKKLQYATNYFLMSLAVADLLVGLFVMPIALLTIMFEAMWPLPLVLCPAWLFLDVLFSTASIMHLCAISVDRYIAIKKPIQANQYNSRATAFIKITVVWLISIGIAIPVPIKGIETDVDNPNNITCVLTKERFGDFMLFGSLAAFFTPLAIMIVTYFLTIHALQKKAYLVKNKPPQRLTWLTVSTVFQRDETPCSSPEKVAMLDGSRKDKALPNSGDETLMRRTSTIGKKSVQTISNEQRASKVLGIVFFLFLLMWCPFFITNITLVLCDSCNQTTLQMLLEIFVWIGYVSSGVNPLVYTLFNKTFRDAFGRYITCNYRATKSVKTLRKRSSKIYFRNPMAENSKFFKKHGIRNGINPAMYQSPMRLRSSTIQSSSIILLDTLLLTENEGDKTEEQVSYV
# Assay type: cell membranes, CHO-K1, Membrane
# Reported Conditions: read-out: IC50
IC50 listing for selected molecules.
Write the answer as a number in nM, unit excluded.

CC(=O)Nc1ccc2c(c1)Cc1ccccc1-2 :: 3170
CC(CN1c2ccccc2Sc2ccccc21)N(C)C (configuration not stated) :: 68
CC1=C(/C=C/C(C)=C/C=C/C(C)=C/C(=O)O)C(C)(C)CCC1 :: 358
Cc1cc(C(C)(C)C)c(O)c(C)c1CC1=NCCN1 :: 3060

Incoming: Would you mind telling me what IC50 value was observed for CCN(CC)CCNC(=O)c1cc(Cl)c(N)cc1OC [METOCLOPRAMIDE] ?
Outgoing: 630

Incoming: Query COc1ccccc1OCCNCC(O)COc1cccc2[nH]c3ccccc3c12 (configuration not stated) next
Outgoing: 23

Incoming: Query CCOc1cc(N)c(Cl)cc1C(=O)NCC1CN(Cc2ccc(F)cc2)CCO1 (configuration not stated) [MOSAPRIDE] next
Outgoing: 296

* * *

# Protocol Details: DRUGMATRIX: Calcium Channel Type L, Benzothiazepine radioligand binding (ligand: [3H] Diltiazem)
# Format: cell membranes, Rattus norvegicus, Wistar, Brain, Membrane
# Reported Conditions: Not Active = under 50% inhibition at 10 µM; read-out: Ki
Outcome Measure: Ki

Worked set:
COc1ccccc1OCCNCC(O)COc1cccc2[nH]c3ccccc3c12 (configuration not stated) :: 552 nM
CN1C[C@H](CNC(=O)OCc2ccccc2)C[C@@H]2c3cccc4c3c(cn4C)C[C@H]21 :: 238 nM
CC[C@H](C)[C@@H](CO[C@@H](Cc1ccccc1)C(=O)N[C@@H](CCS(C)(=O)=O)C(=O)OC(C)C)NC[C@@H](N)CS :: 3170 nM
CC#C[C@]1(O)CC[C@H]2[C@@H]3CCC4=CC(=O)CCC4=C3[C@@H](c3ccc(N(C)C)cc3)C[C@@]21C :: 25800 nM
CC(CN1c2ccccc2Sc2ccccc21)N(C)C (configuration not stated) :: 2470 nM

Incoming: Would you mind telling me what Ki value was observed for CCOC(=O)C1=C(C)NC(C)=C(C(=O)OCC)C1c1ccccc1/C=C/C(=O)OC(C)(C)C ?
Outgoing: 4.84 nM

Incoming: Query CC(N)Cc1c[nH]c2ccc(OCc3cccs3)cc12 (configuration not stated) next
Outgoing: 3080 nM

* * *

# Study Target: Cytochrome P450 1A2 (Homo sapiens, UniProt P05177); further: in other assays of this panel Not Active means under 50% inhibition at 10 µM
# Sequence (P05177 whole entry): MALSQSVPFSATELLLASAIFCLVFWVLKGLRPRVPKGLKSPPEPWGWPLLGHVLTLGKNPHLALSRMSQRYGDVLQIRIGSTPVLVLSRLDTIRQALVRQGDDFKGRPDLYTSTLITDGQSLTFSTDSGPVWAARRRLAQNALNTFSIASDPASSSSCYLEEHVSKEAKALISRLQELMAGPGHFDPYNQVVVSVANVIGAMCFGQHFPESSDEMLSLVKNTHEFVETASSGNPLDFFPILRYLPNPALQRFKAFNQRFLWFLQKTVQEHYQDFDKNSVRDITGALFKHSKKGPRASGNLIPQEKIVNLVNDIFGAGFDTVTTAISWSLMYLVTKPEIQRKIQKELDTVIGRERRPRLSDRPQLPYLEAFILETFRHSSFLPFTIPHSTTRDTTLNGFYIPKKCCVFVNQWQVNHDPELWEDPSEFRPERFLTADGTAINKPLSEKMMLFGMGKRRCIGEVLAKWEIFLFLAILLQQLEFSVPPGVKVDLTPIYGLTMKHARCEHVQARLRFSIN
# Reported Conditions: bti-tn-5b1-4
Outcome Measure: IC50

C[C@@H]1[C@H](O)[C@@H](C)/C=C/C=C/C=C/C=C/C=C/C=C/C=C/[C@H](O[C@@H]2O[C@H](C)[C@@H](O)[C@H](N)[C@@H]2O)C[C@@H]2O[C@](O)(C[C@@H](O)C[C@@H](O)[C@H](O)CC[C@@H](O)C[C@@H](O)CC(=O)O[C@H]1C)C[C@H](O)[C@H]2C(=O)O :: Not Active
CC(C)(C#N)c1cc(Cn2cncn2)cc(C(C)(C)C#N)c1 :: Not Active
NCC(CC(=O)O)c1ccc(Cl)cc1 (stereo not drawn) :: Not Active
CNC[C@H](O)c1ccc(O)c(O)c1 [EPINEPHRINE] :: Not Active
C[N+]1(C)[C@@H]2C[C@@H](OC(=O)[C@H](CO)c3ccccc3)C[C@H]1[C@@H]1O[C@@H]12.[Br-] [METHSCOPOLAMINE BROMIDE] :: Not Active
O=C(O)COC(=O)Cc1ccccc1Nc1c(Cl)cccc1Cl :: Not Active

Incoming: Would you mind telling me what IC50 value was observed for Nc1ccc(C(=O)O)c(O)c1 ?
Outgoing: Not Active

Incoming: Query Nc1nc(F)nc2c1ncn2[C@@H]1O[C@H](CO)[C@@H](O)[C@@H]1O next
Outgoing: Not Active

Sourced from ChEMBL document CHEMBL1909046
